The listing below reports HepSE_hepatitis for compounds tested on Hepatotoxicity.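 Note: Hepatitis-related hepatic side effect score taken from the training data of DILIps, a prediction system for drug-induced liver injury.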 Note: call rule not given here.

{"COMPOUND": "CC[C@H]1OC(=O)[C@H](C)[C@@H](O[C@H]2C[C@@](C)(OC)[C@@H](O)[C@H](C)O2)[C@H](C)[C@@H](O[C@@H]2O[C@H](C)C[C@H](N(C)C)[C@H]2O)[C@](C)(OC)C[C@@H](C)C(=O)[C@H](C)[C@@H](O)[C@]1(C)O", "HepSE_hepatitis": 1}
{"COMPOUND": "C[C@H](CS)C(=O)N1CCC[C@H]1C(=O)O", "HepSE_hepatitis": 1}
{"COMPOUND": "[N]=O [NITRIC OXIDE]", "HepSE_hepatitis": 0}
{"COMPOUND": "CCCC(C)(COC(N)=O)COC(=O)NC(C)C (stereo not given)", "HepSE_hepatitis": 0}
{"COMPOUND": "CC(C)c1nc(CN(C)C(=O)N[C@H](C(=O)N[C@@H](Cc2ccccc2)C[C@H](O)[C@H](Cc2ccccc2)NC(=O)OCc2cncs2)C(C)C)cs1", "HepSE_hepatitis": 1}
{"COMPOUND": "NCCS", "HepSE_hepatitis": 0}
{"COMPOUND": "C=CC(N)CCC(=O)O (stereo not given)", "HepSE_hepatitis": 0}
{"COMPOUND": "CCOC(=O)c1ccc(C#Cc2ccc3c(c2)C(C)(C)CCS3)nc1", "HepSE_hepatitis": 0}
{"COMPOUND": "O=C1NC(c2ccccc2)(c2ccccc2)C(=O)N1COP(=O)(O)O", "HepSE_hepatitis": 0}
{"COMPOUND": "CCCCc1ncc(/C=C(\\Cc2cccs2)C(=O)O)n1Cc1ccc(C(=O)O)cc1", "HepSE_hepatitis": 0}
{"COMPOUND": "CC(C)CN(C[C@@H](O)[C@H](Cc1ccccc1)NC(=O)O[C@H]1CO[C@H]2OCC[C@H]21)S(=O)(=O)c1ccc(N)cc1", "HepSE_hepatitis": 1}
{"COMPOUND": "CCOc1nc2cccc(C(=O)O)c2n1Cc1ccc(-c2ccccc2-c2nnn[nH]2)cc1", "HepSE_hepatitis": 1}
{"COMPOUND": "CC#C[C@]1(O)CC[C@H]2[C@@H]3CCc4cc(O)ccc4[C@H]3CC[C@@]21C", "HepSE_hepatitis": 0}
{"COMPOUND": "CCN1CC(CCN2CCOCC2)C(c2ccccc2)(c2ccccc2)C1=O (stereo not given)", "HepSE_hepatitis": 0}
{"COMPOUND": "Nc1cc(Cl)c(N=C2NCCN2)c(Cl)c1", "HepSE_hepatitis": 0}
{"COMPOUND": "CC1=C(C(=O)O)N2C(=O)[C@@H](NC(=O)[C@H](N)C3=CCC=CC3)[C@H]2SC1", "HepSE_hepatitis": 0}
{"COMPOUND": "CC(=O)Oc1c(C)cc(OCC(O)CNC(C)C)c(C)c1C (stereo not given)", "HepSE_hepatitis": 0}
{"COMPOUND": "CC(C)OC(=O)C(C)(C)Oc1ccc(C(=O)c2ccc(Cl)cc2)cc1 [FENOFIBRATE]", "HepSE_hepatitis": 1}
{"COMPOUND": "Nc1ncnc2c1ncn2[C@@H]1O[C@H](COP(=O)(S)S)[C@@H](O)[C@H]1O", "HepSE_hepatitis": 1}
{"COMPOUND": "CC(=O)/N=c1/sc(S(N)(=O)=O)nn1C [METHAZOLAMIDE]", "HepSE_hepatitis": 0}
{"COMPOUND": "O=[N+]([O-])O[C@H]1CO[C@H]2[C@@H]1OC[C@H]2O[N+](=O)[O-] [ISOSORBIDE DINITRATE]", "HepSE_hepatitis": 0}
{"COMPOUND": "O=C1c2cccc3c2[C@H](CCC3)CN1[C@@H]1CN2CCC1CC2", "HepSE_hepatitis": 0}
{"COMPOUND": "N[C@@H]1[C@H]2CN(c3nc4c(cc3F)c(=O)c(C(=O)O)cn4-c3ccc(F)cc3F)C[C@@H]12", "HepSE_hepatitis": 1}
{"COMPOUND": "CC1(C)O[C@@H]2C[C@H]3[C@@H]4C[C@H](F)C5=CC(=O)CC[C@]5(C)[C@H]4[C@@H](O)C[C@]3(C)[C@]2(C(=O)CO)O1 [FLURANDRENOLIDE]", "HepSE_hepatitis": 0}
{"COMPOUND": "CC1(C)S[C@@H]2[C@H](NC(=O)[C@H](N)c3ccccc3)C(=O)N2[C@H]1C(=O)O", "HepSE_hepatitis": 0}

The origin of these recorded values is ChEMBL document CHEMBL1909294.
